Test system: NCI-H727
Assay: relative viability (nuclei count vs DMSO), 5 days (fraction); higher = more cells survive
Details: first compound 1 µM
Record form. Attribute: relative viability. Fill in for each entry.
One number for each entry.

Known relative viability results, listed for orientation:
compound	recorded number
CCN(CC)CCCCNc1ncc2cc(-c3cc(OC)cc(OC)c3)c(NC(=O)NC(C)(C)C)nc2n1 + O=C(CCCCCCC(=O)Nc1ccccc1)NO [Vorinostat] (partner 1 µM)	1.23
CCN(CC)CCCCNc1ncc2cc(-c3cc(OC)cc(OC)c3)c(NC(=O)NC(C)(C)C)nc2n1 + C[C@]1(O)C[C@@H](c2nc(-c3ccc4ccc(-c5ccccc5)nc4c3)c3c(N)nccn32)C1 [Linsitinib] (partner 1 µM)	0.301
O=c1cc(N2CCOCC2)oc2c(-c3cccc4c3sc3ccccc34)cccc12 + CCNC(=O)c1noc(-c2cc(C(C)C)c(O)cc2O)c1-c1ccc(CN2CCOCC2)cc1 [Luminespib] (partner 0.01 µM)	0.416
O=c1cc(N2CCOCC2)oc2c(-c3cccc4c3sc3ccccc34)cccc12 + Nc1ncn([C@H]2C[C@H](O)[C@@H](CO)O2)c(=O)n1 [Decitabine] (partner 2 µM)	0.773

--- query ---
Reported relative viability, compound CCN(CC)CCCCNc1ncc2cc(-c3cc(OC)cc(OC)c3)c(NC(=O)NC(C)(C)C)nc2n1 + CS(=O)(=O)CCNCc1ccc(-c2ccc3ncnc(Nc4ccc(OCc5cccc(F)c5)c(Cl)c4)c3c2)o1 [Lapatinib] (partner 2 µM) : ____
1.08
